TESTED ON: Vascular endothelial growth factor receptor 2 (Homo sapiens, UniProt P35968)
Sequence (P35968 whole entry): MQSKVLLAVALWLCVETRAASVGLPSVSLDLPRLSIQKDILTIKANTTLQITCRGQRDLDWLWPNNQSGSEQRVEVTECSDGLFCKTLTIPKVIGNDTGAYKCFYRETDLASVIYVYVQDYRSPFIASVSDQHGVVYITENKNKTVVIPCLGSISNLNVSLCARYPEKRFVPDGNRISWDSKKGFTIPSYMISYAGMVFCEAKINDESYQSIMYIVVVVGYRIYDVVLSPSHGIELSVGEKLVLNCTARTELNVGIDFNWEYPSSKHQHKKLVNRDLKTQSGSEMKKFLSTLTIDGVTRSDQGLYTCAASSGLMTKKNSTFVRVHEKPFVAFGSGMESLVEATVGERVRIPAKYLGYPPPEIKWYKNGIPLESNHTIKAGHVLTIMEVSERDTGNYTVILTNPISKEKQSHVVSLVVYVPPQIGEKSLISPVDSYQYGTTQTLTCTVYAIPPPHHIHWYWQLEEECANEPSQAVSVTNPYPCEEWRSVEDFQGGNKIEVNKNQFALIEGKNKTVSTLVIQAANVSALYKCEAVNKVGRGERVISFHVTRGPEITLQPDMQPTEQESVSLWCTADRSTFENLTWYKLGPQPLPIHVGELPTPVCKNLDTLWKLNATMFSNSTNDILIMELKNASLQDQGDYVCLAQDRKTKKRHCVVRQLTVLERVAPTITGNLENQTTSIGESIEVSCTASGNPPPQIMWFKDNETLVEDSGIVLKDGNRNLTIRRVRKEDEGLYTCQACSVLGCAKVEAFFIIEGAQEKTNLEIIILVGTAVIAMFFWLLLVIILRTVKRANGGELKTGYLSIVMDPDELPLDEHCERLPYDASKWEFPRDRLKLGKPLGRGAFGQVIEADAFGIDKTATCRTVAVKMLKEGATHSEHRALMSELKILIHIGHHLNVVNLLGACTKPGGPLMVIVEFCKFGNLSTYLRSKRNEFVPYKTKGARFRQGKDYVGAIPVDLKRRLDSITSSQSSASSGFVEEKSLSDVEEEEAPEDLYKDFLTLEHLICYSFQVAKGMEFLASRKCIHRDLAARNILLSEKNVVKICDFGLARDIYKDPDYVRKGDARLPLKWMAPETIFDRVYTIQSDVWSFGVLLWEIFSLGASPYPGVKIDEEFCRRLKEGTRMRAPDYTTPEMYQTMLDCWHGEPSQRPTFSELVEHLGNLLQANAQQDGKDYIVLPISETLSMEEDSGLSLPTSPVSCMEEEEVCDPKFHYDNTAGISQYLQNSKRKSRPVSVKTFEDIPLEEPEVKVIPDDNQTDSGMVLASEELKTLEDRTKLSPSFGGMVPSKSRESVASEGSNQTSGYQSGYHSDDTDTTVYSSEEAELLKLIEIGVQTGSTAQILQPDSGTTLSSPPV
ASSAY NAME: Inhibition of VEGFR-2 (unknown origin) using poly (Glu, Tyr) 4:1 as substrate after 30 mins by HTRF assay
READOUT: pIC50
pIC50 here is simply -log10 of the concentration when that concentration is written in mol/L.

// pIC50 lookup, key: COc1cc2c(Oc3ccc(NC(=O)c4[nH]c(=O)n(-c5ccccc5Cl)c4C)cc3F)ccnc2cc1OCCCN1CCN(C)CC1
7.03

----------
TESTED ON: Mast/stem cell growth factor receptor Kit (Homo sapiens)
Sequence (P10721 whole entry): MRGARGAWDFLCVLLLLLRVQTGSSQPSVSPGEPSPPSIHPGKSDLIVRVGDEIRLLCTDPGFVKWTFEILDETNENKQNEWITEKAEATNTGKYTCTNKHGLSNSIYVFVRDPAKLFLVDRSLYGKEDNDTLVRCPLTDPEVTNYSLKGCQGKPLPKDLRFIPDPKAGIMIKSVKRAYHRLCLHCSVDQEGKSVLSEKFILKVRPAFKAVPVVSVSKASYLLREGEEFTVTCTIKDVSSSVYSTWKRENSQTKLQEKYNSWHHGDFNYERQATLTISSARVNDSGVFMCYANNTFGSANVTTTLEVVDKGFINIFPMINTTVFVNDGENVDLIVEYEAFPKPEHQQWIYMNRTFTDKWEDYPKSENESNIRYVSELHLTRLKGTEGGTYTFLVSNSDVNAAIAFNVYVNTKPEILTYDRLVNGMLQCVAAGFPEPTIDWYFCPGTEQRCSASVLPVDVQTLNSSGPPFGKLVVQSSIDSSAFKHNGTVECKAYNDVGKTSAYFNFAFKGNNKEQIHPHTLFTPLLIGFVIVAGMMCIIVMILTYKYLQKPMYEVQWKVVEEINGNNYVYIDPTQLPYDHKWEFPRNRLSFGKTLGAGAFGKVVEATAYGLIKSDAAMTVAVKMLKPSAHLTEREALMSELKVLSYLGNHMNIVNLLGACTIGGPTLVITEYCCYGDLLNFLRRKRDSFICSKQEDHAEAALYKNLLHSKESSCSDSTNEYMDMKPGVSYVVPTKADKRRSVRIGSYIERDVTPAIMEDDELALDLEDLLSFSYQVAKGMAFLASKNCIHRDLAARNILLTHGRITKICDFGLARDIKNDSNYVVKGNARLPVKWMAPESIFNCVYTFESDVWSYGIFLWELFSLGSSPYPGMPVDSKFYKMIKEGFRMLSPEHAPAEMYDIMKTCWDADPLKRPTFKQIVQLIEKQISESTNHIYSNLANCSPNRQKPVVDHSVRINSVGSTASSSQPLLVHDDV
READOUT: pIC50
pIC50 here is simply -log10 of the concentration when that concentration is written in mol/L.

Recorded pIC50 for COc1cc2c(Oc3ccc(NC(=O)c4[nH]c(=O)n(-c5ccccc5Cl)c4C)cc3F)ccnc2cc1OCCCN1CCN(C)CC1 with Mast/stem cell growth factor receptor Kit (Homo sapiens), please?
7.42
